Source of measurements: patent US11498896B2

# targetUnderTest: human D2R/β-arrestin (Homo sapiens (Human), UniProt P14416)
# Sequence (P14416 whole entry): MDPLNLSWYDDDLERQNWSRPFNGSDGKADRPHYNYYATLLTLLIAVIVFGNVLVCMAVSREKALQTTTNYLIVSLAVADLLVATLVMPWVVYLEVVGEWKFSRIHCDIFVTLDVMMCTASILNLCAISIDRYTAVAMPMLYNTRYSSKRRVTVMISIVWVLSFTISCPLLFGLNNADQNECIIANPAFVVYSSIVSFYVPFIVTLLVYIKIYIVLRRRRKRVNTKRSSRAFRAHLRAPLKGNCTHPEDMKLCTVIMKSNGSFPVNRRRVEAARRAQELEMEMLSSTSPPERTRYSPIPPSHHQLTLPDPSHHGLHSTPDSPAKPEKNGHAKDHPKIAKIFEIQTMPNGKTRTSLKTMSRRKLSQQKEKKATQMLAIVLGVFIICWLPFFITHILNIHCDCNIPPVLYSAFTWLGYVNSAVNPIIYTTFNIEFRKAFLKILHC
# experimentalDetails: cell-based
# recordedConditions: cAMP Antagonist, CHO-K1 cells expressing human D2R/β-arrestin; antagonist mode, 2.5 μM forskolin and 2.7 nM quinpirole
pIC50: −log10 of the molar value.
endpoint: pIC50

Below, 3 compounds whose answers are already recorded.
CC(=O)N(CCN1CCC(C)(Oc2ccc(Cl)cc2)CC1)c1ccccc1C(F)(F)F	< 4.52
CC(=O)c1cc(F)ccc1OCCN1CCC(C)(Oc2ccc(Cl)cc2)CC1	5.00 to 6.00
CC1(Oc2ccc(Cl)cc2)CCCN(CCOc2ccccc2F)C1 (stereo not shown)	> 7.00

Please turn your attention to the following entry.
Enquiry: Give pIC50 for CC1(Oc2ccc(Cl)cc2)CCN(CCOc2ccccc2Cl)CC1
Return: < 4.52

* * *

# targetUnderTest: human D2R/β-arrestin (Homo sapiens (Human), UniProt P14416)
# experimentalDetails: cell-based
# recordedConditions: β-arrestin Antagonist, CHO-K1 cells expressing human D2R/β-arrestin; antagonist mode, quinpirole 130 nM
pIC50: −log10 of the molar value.
endpoint: pIC50

Use these answered entries as a reference point.
CC1(Oc2ccc(Cl)cc2)CCN(CCCCOc2ccccc2Cl)C1 (stereo not shown)	6.00 to 7.00
CC1(Oc2ccccc2)CCN(CCOc2ccccc2OC(F)(F)F)CC1	6.00 to 7.00
Cc1ccccc1OCCN1CCC(C)(Oc2ccccc2)CC1	6.00 to 7.00

// next entry
Enquiry: Hello, please tell me recorded pIC50 for this one: CNC(=O)C1(C)CCN(CC2COc3ccccc3O2)CC1 (single isomer, unassigned) [Compound 202a]
Return: 4.52 to 5.00
